These measurements were taken from patent US20250304677A1.

target-entity: T1, human folate receptor alpha expressed on cells (transfected HEK293T, HeLa, MCF7, MDA-MB-231) (human, UniProt P15328 25-234)
T1 construct: HEK293T transiently transfected with human FOLR1; also called native human FRα; cell-expressed human FOLR1
T1 sequence (P15328 25-234 limits assumed): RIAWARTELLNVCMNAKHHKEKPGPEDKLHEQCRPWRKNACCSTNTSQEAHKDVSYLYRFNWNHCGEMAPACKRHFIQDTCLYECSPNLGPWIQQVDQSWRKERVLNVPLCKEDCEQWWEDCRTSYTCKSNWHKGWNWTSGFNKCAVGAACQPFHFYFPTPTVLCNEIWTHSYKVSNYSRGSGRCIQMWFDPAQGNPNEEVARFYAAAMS
protocol-description: flow cytometry on HeLa cells, anti-Flag detection
recorded-endpoint: MFI top (MFI)
The reply should be a number in MFI, with the unit left off.

Guide cases for MFI top, answers given:
[
  {
    "binder": "P01500006: 2HF042(Q1E, Q5V, A14P, V40A, L79Y, K83R, Q108L)-FLAG3-HIS6 (VHH, Entry includes the tags; also called P0150006) VHH: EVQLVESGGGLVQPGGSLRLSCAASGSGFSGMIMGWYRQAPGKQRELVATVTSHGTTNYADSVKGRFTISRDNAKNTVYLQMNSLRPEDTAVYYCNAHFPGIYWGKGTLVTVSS",
    "MFI top (MFI)": 35300
  },
  {
    "binder": "P01500052: P01500001(V51R, D72E)-FLAG3-HIS6 (VHH, also called P0150052) VHH: EVQLVESGGGLVQPGGSLRLSCAASGSGFSGMIMGWYRQAPGKQRELVATRTSHGTTNYADSVKGRFTISRENAKNTVYLQMNSLRPEDTAVYYCNAHFPGIYWGKGTLVTVSS",
    "MFI top (MFI)": 53900
  },
  {
    "binder": "P01500056: P01500001(I33L, D72P, N73G)-FLAG3-HIS6 (VHH, also called P0150056) VHH: EVQLVESGGGLVQPGGSLRLSCAASGSGFSGMLMGWYRQAPGKQRELVATVTSHGTTNYADSVKGRFTISRPGAKNTVYLQMNSLRPEDTAVYYCNAHFPGIYWGKGTLVTVSS",
    "MFI top (MFI)": 55300
  },
  {
    "binder": "P01500051: P01500001(D72E, N73G)-FLAG3-HIS6 (VHH, also called P0150051) VHH: EVQLVESGGGLVQPGGSLRLSCAASGSGFSGMIMGWYRQAPGKQRELVATVTSHGTTNYADSVKGRFTISREGAKNTVYLQMNSLRPEDTAVYYCNAHFPGIYWGKGTLVTVSS",
    "MFI top (MFI)": 61000
  },
  {
    "binder": "P01500008: 2MFR67(Q1E, Q5V, Q108L)-FLAG3-HIS6 (VHH, Entry includes the tags; also called 2MFR67-Flag3-His6) VHH: EVQLVESGGGLVQAGGSLRLSCAASGSGFSGMIMGWYRQAPGKQRELVATVTSHGTTNYADSVKGRFTISREDSKNTVLLQMNSLKPEDTAVYYCNAHFPGIYWGKGTLVTVSS",
    "MFI top (MFI)": 54900
  },
  {
    "binder": "P01500041: P01500001(D72P, N73G)-FLAG3-HIS6 (VHH, also called P0150041) VHH: EVQLVESGGGLVQPGGSLRLSCAASGSGFSGMIMGWYRQAPGKQRELVATVTSHGTTNYADSVKGRFTISRPGAKNTVYLQMNSLRPEDTAVYYCNAHFPGIYWGKGTLVTVSS",
    "MFI top (MFI)": 63000
  },
  {
    "binder": "P01500043: P01500001(G28T, I33L, D72E)-FLAG3-HIS6 (VHH, also called P0150043) VHH: EVQLVESGGGLVQPGGSLRLSCAASGSTFSGMLMGWYRQAPGKQRELVATVTSHGTTNYADSVKGRFTISRENAKNTVYLQMNSLRPEDTAVYYCNAHFPGIYWGKGTLVTVSS",
    "MFI top (MFI)": 60200
  },
  {
    "binder": "P01500055: P01500001(V51R, D72E, N73G)-FLAG3-HIS6 (VHH, also called P0150055) VHH: EVQLVESGGGLVQPGGSLRLSCAASGSGFSGMIMGWYRQAPGKQRELVATRTSHGTTNYADSVKGRFTISREGAKNTVYLQMNSLRPEDTAVYYCNAHFPGIYWGKGTLVTVSS",
    "MFI top (MFI)": 59000
  }
]

What value of MFI top has been reported for the following binder? P01500054: P01500001(I33L, N73P)-FLAG3-HIS6 (VHH, also called P0150054) VHH: EVQLVESGGGLVQPGGSLRLSCAASGSGFSGMLMGWYRQAPGKQRELVATVTSHGTTNYADSVKGRFTISRDPAKNTVYLQMNSLRPEDTAVYYCNAHFPGIYWGKGTLVTVSS
55800

Reported MFI top for P01500048: P01500001(S30I, D72P)-FLAG3-HIS6 (VHH, also called P0150048) VHH: EVQLVESGGGLVQPGGSLRLSCAASGSGFIGMIMGWYRQAPGKQRELVATVTSHGTTNYADSVKGRFTISRPNAKNTVYLQMNSLRPEDTAVYYCNAHFPGIYWGKGTLVTVSS : what is it?
59800

What value of MFI top has been recorded for this entry: P01500057: P01500001(G26E, G28P, D72E, N73G)-FLAG3-HIS6 (VHH, also called P0150057) VHH: EVQLVESGGGLVQPGGSLRLSCAASESPFSGMIMGWYRQAPGKQRELVATVTSHGTTNYADSVKGRFTISREGAKNTVYLQMNSLRPEDTAVYYCNAHFPGIYWGKGTLVTVSS
53800

Reported MFI top for P01500046: P01500001(N73P)-FLAG3-HIS6 (VHH, also called P0150046) VHH: EVQLVESGGGLVQPGGSLRLSCAASGSGFSGMIMGWYRQAPGKQRELVATVTSHGTTNYADSVKGRFTISRDPAKNTVYLQMNSLRPEDTAVYYCNAHFPGIYWGKGTLVTVSS : what is it?
50800

What measured MFI top goes with P01500042: P01500001(G28T, S30I)-FLAG3-HIS6 (VHH, also called P0150042) VHH: EVQLVESGGGLVQPGGSLRLSCAASGSTFIGMIMGWYRQAPGKQRELVATVTSHGTTNYADSVKGRFTISRDNAKNTVYLQMNSLRPEDTAVYYCNAHFPGIYWGKGTLVTVSS ?
54700
